For each entry below, report its IC50 value.
# Test system: HCV replicon 2B
# RUN_DESCRIPTION: microbe, parasite or virus in culture
# Type: cell-based, Hepatitis C virus (HCV)
# CONDITION_SUMMARY: read-out: 2B IC50; HCV replicon 2B; Replicon Assay A
Answers are plain numbers, in nM.

Study these solved cases before continuing.
COMPOUND	IC50 (nM)
COC(=O)N[C@H](C(=O)N1CCC[C@H]1c1ncc(-c2cc(F)c3c(c2)OC(c2cc4c(s2)CCC4)n2c-3cc3cc(-c4cnc([C@@H]5CCCN5C(=O)[C@@H](NC(=O)OC)C5CCOCC5)[nH]4)ccc32)[nH]1)C(C)C (single isomer, unassigned) [Compound 620]	0.0102
COC(=O)NC(C(=O)N1[C@@H]2C[C@@H]2C[C@H]1c1ncc(-c2ccc3c(c2)c(F)c2n3C(c3ccc(C4CC4)s3)Oc3cc(-c4cnc([C@@H]5CCCN5C(=O)[C@@H](NC(=O)OC)C(C)C)[nH]4)cc(F)c3-2)[nH]1)C1CCOC(C)(C)C1 (single isomer, unassigned) [Compound 423]	0.0096

Now consider a different compound.
Supply recorded IC50 for COCc1ccc(C2Oc3cc(-c4cnc([C@@H]5CCCN5C(=O)[C@@H](NC(=O)OC)C(C)C)[nH]4)cc(F)c3-c3cc4cc(-c5c[nH]c([C@@H]6CCCN6C(=O)[C@@H](NC(=O)OC)C(C)C)n5)ccc4n32)s1 (single isomer, unassigned) [Compound 511] here.
1.83

* * *

# Test system: HCV replicon 1AY93H
# RUN_DESCRIPTION: microbe, parasite or virus in culture
# Type: cell-based, Hepatitis C virus (HCV)
# CONDITION_SUMMARY: read-out: 1A Y93H IC50; HCV replicon 1A Y93H; Replicon Assay A
# Protocol: To measure cell-based anti-HCV activity of compounds of the present invention, two complimentary assays were employed using various replicons. […] The replicon RNA level was measured using real time PCR (TaqMan® EZ RT-PCR, Applied Biosystems 403028) with the following primers and probes: […] The amount of HCV replicon RNA per cell is quantified using a linear regression curve for a known nanogram (ng) amount of HCV replicon total RNA. […]
For each entry below, report its log10 IC50 value.
Record value = log10 of IC50 given in nM.

MOLECULE	TEST_TARGET	READOUT_LABEL	OBSERVED_VALUE
COC(=O)N[C@H](C(=O)N1CCC[C@H]1c1ncc(-c2cc(C)c3c(c2)OC(c2ccc(C4CC4)s2)n2c-3cc3cc(-c4cnc([C@@H]5CCCN5C(=O)[C@@H](NC(=O)OC)C(C)C)[nH]4)ccc32)[nH]1)C(C)C (single isomer, unassigned) [Compound 752]	HCV replicon 1AY93H	log10 IC50	0.43
COC(=O)N[C@H](C(=O)N1CCC[C@H]1c1ncc(-c2cc(F)c3c(c2)OC(c2ccc(CC(C)C)s2)n2c-3cc3cc(-c4cnc([C@@H]5CCCN5C(=O)[C@@H](NC(=O)OC)C(C)C)[nH]4)ccc32)[nH]1)C(C)C (single isomer, unassigned) [Compound 522]	HCV replicon 1AY93H	log10 IC50	-1.11
CCc1ccc(C2Oc3cc(-c4cnc([C@@H]5CCCN5C(=O)[C@@H](NC(=O)OC)C(C)C)[nH]4)ccc3-c3c(F)c4cc(-c5cnc([C@@H]6CCCN6C(=O)C(NC(=O)OC)C6C[C@@H](C)O[C@@H](C)C6)[nH]5)ccc4n32)s1 (single isomer, unassigned) [Compound 633]	HCV replicon 1AY93H	log10 IC50	-0.51

Batch request: log10 IC50 for each of the following molecules.
1. COC(=O)NC(C(=O)N1CCC[C@H]1c1ncc(-c2ccc3c(c2)cc2n3C(c3ccc(CC4CC4)s3)Oc3cc(-c4cnc([C@@H]5CCCN5C(=O)[C@@H](NC(=O)OC)C(C)C)[nH]4)cc(F)c3-2)[nH]1)C1CCOC(C)(C)C1 (single isomer, unassigned) [Compound 408]
2. COC(=O)N[C@H](C(=O)N1CCC[C@H]1c1ncc(-c2cc(F)c3c(c2)OC(c2cc4c(s2)CCC4)n2c-3cc3cc(-c4cnc([C@@H]5CCCN5C(=O)[C@@H](NC(=O)OC)C5CCOCC5)[nH]4)ccc32)[nH]1)C(C)C (single isomer, unassigned) [Compound 622]
3. COC(=O)N[C@H](C(=O)N1C[C@H](F)C[C@H]1c1ncc(-c2ccc3c(c2)OC(c2ccc(C)s2)n2c-3cc3cc(-c4cnc([C@@H]5C[C@H]6C[C@H]6N5C(=O)[C@@H](NC(=O)OC)C(C)C)[nH]4)ccc32)[nH]1)C(C)C (single isomer, unassigned) [Compound 706]
4. COC(=O)N[C@H](C(=O)N1CCC[C@H]1c1ncc(-c2ccc3c(c2)OC(c2cc(C)c(C)s2)n2c-3cc3cc(-c4cnc([C@@H]5C[C@H]6C[C@H]6N5C(=O)[C@@H](NC(=O)OC)C(C)C)[nH]4)ccc32)[nH]1)C(C)C (single isomer, unassigned) [Compound 502]
5. COC(=O)N[C@H](C(=O)N1CCC[C@H]1c1ncc(-c2ccc3c(c2)OC(c2cc4sccc4s2)n2c-3cc3cc(-c4c[nH]c([C@@H]5C[C@H]6C[C@H]6N5C(=O)[C@@H](NC(=O)OC)C(C)C)n4)ccc32)[nH]1)C(C)C (single isomer, unassigned) [Compound 718]
6. CCc1ccc(C2Oc3cc(-c4cnc([C@@H]5CCCN5C(=O)[C@@H](NC(=O)OC)C(C)C)[nH]4)ccc3-c3c(F)c4cc(-c5cnc([C@@H]6CCCN6C(=O)C(NC(=O)OC)C6C[C@@H](C)O[C@@H](C)C6)[nH]5)ccc4n32)s1 (single isomer, unassigned) [Compound 635]
7. COC(=O)N[C@H](C(=O)N1C[C@H](F)C[C@H]1c1ncc(-c2ccc3c(c2)cc2n3C(c3cc4ccccc4s3)Oc3cc(-c4cnc([C@@H]5CCCN5C(=O)[C@@H](NC(=O)OC)C5CCOCC5)[nH]4)ccc3-2)[nH]1)C(C)C (single isomer, unassigned) [Compound 623]

1. -2.40
2. -2.36
3. 0.39
4. -0.24
5. -0.96
6. -1.57
7. -1.67
